Hello, the source for this data is patent EP0670315A1, in case you need it.

Tested on: Candida albicans strain IFM40009
Measurement Notes: Treatment of infection, protocol 2: mice infected with Candida albicans, oral treatment, survival
Format: in vivo
Test Settings: ICR male mice, i.v. infection 1 × 10⁶ cells, oral once after an hour of infection, survival at 7th day, Litchfield-Wilcoxon
API: label(entry) gives yes if the entry's ED50 is strictly smaller than 9 mg/kg; on equality or larger values it gives no.

Worked set:
• COC(C)(OC)ON=C(C(C)C)C1(C(O)(Cn2cncn2)c2ccc(F)cc2F)CC1 (centres unmarked) = yes
• CCC(=NOCCBr)C1(C(O)(Cn2cncn2)c2ccc(F)cc2F)CC1 (centres unmarked) = no
• CCCCON=C(CC)C1(C(O)(Cn2cncn2)c2ccc(F)cc2F)CC1 (centres unmarked) = no

Lab note: confirm whether the reported ED50 for this molecule is below 9 mg/kg, equality not counting. molecule: OC(Cn1cncn1)(Cn1cncn1)c1ccc(F)cc1F [Fluconazole, fluconazole, reference compound]
no

API: query returns whether the molecule falls strictly under 9 mg/kg in ED50. Query: CCC(=NOCn1cncn1)C1(C(O)(Cn2cncn2)c2ccc(F)cc2F)CC1 (centres unmarked)
no

Dear colleague, could you confirm whether ED50 of COC(OC)ON=C(C(C)C)C1(C(O)(Cn2cncn2)c2ccc(F)cc2F)CC1 (centres unmarked) falls below 9 mg/kg? Thanks.
no

Decide: ED50 of COC(C)ON=C(C(C)C)C1(C(O)(Cn2cncn2)c2ccc(F)cc2F)CC1 (centres unmarked) strictly below 9 mg/kg?
yes
